# measured.on: IRAK-4 (Homo sapiens, UniProt Q9NWZ3)
# Sequence (Q9NWZ3 whole entry): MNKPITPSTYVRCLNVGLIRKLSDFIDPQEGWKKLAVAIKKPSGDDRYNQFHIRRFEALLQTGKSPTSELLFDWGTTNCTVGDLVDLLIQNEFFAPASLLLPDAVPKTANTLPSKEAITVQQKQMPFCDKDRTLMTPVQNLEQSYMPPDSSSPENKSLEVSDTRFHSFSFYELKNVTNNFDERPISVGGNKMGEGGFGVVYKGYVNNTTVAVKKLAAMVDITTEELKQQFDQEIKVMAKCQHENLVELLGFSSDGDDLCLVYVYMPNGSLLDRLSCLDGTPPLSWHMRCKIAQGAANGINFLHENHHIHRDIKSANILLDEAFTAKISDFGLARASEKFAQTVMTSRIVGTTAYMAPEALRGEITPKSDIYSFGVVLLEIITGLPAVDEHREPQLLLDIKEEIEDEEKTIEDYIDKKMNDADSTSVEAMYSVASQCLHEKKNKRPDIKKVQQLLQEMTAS
# procedure.summary: IRAK-4 ELISA, PBMC degradation
# Type: cell-based
# Design: endogenous in cells; host or cells: PBMC
# test.parameters: treated overnight
Form field: DC50 (one value per entry).

compound="CC(C)Oc1cc2c(cc1NC(=O)c1cnn3cccnc13)CN(C1CCN(C3CCN(c4ccc5c(c4)C(=O)N(C4CCC(=O)NC4=O)C5=O)CC3)CC1)C2=O (stereo not drawn)" readout_value="< 1 nM"
compound="O=C1CCC(N2C(=O)c3ccc(N4CC(F)(CN5CCC(n6cc7cc(NC(=O)c8cnn9cccnc89)c(C8CC8)cc7n6)CC5)C4)cc3C2=O)C(=O)N1 (stereo not drawn)" readout_value="1 to 5 nM"
compound="CC(C)(C1CCN(c2ccc3c(c2)C(=O)N(C2CCC(=O)NC2=O)C3=O)CC1)N1CCC(N2Cc3cc(NC(=O)c4cnn5cccnc45)c(OCC4CC4)cc3C2=O)CC1 (stereo not drawn)" readout_value="5 to 10 nM"
compound="CC(C)Oc1cc2c(cc1NC(=O)c1cnn3ccc(N4CCOCC4)nc13)CN(C1CCN(CC3CN(c4ccc5c(c4)C(=O)N(C4CCC(=O)NC4=O)C5=O)C3)CC1)C2=O (stereo not drawn)" readout_value="5 to 10 nM"
compound="CC(C)Oc1cc2c(cc1NC(=O)c1cnn3cccnc13)CN([C@H]1CC[C@@H](N3CCN(c4ccc5c(c4)C(=O)N(C4CCC(=O)NC4=O)C5=O)CC3)CC1)C2=O (stereo partly drawn)" readout_value="1 to 5 nM"

Incoming: Provide one value: measured DC50 of CC(C)Oc1cc2c(cc1NC(=O)c1cnn3cccnc13)CN(C1CCN(CC3(F)CCN(c4ccc5c(c4)C(=O)N(C4CCC(=O)NC4=O)C5=O)CC3)CC1)C2=O (stereo not drawn)
Outgoing: 1 to 5 nM

Incoming: Provide one value: measured DC50 of O=C1CCC(N2C(=O)c3ccc(N4CCC(CN5CCC(n6cc7cc(NC(=O)c8cnn9cccnc89)c(OCC8CC8)cc7n6)CC5)CC4)cc3C2=O)C(=O)N1 (stereo not drawn)
Outgoing: 1 to 5 nM

Incoming: Provide one value: measured DC50 of CC(C)Oc1cc2nn(C3CCN(CC4CN(c5ccc6c(c5)C(=O)N(C5CCC(=O)NC5=O)C6=O)C4)CC3)cc2cc1NC(=O)c1cnn2cccnc12 (stereo not drawn)
Outgoing: < 1 nM

Incoming: Provide one value: measured DC50 of O=C1CCC(N2Cc3cc(N4CC(F)(CN5CCC(N6Cc7cc(NC(=O)c8cnn9cccnc89)c(OCC8CC8)cc7C6=O)CC5)C4)ccc3C2=O)C(=O)N1 (stereo not drawn)
Outgoing: < 1 nM

Incoming: Provide one value: measured DC50 of O=C1CCC(N2Cc3cc(N4CCC(CN5CCC(n6cc7cc(NC(=O)c8cnn9cccnc89)c(OCC(F)F)cc7n6)CC5)CC4)ccc3C2=O)C(=O)N1 (stereo not drawn) [Example 156]
Outgoing: < 1 nM

Incoming: Provide one value: measured DC50 of CC(C)Oc1cc2c(cc1NC(=O)c1cnn3cccnc13)CN(C1CCN(C(C)(C)C3CN(c4ccc(C(=O)NC5CCC(=O)NC5=O)c(F)c4)C3)CC1)C2=O (stereo not drawn)
Outgoing: 1 to 5 nM

Incoming: Provide one value: measured DC50 of CC(C)Oc1cc2nn(C3CCN(CCC4(F)CN(c5ccc6c(c5)C(=O)N(C5CCC(=O)NC5=O)C6=O)C4)CC3)cc2cc1NC(=O)c1cnn2cccnc12 (stereo not drawn)
Outgoing: < 1 nM

Incoming: Provide one value: measured DC50 of O=C1CCC(N2C(=O)c3ccc(N4CC(F)(CN5CCC(n6cc7cc(NC(=O)c8cnn9cccnc89)c(OC8CCCC8)cc7n6)CC5)C4)cc3C2=O)C(=O)N1 (stereo not drawn)
Outgoing: 5 to 10 nM

Incoming: Provide one value: measured DC50 of COc1cc(N2CC(CN3CCC(N4Cc5cc(NC(=O)c6cnn7cccnc67)c(OC(C)C)cc5C4=O)CC3)C2)cc2c1C(=O)N(C1CCC(=O)NC1=O)C2 (stereo not drawn)
Outgoing: < 1 nM

Incoming: Provide one value: measured DC50 of CC(C)Oc1cc2c(cc1NC(=O)c1cnn3cccnc13)CN(C1CCN(C(C)(C)C3CCN(c4ccc5c(c4)CN(C4CCC(=O)NC4=O)C5=O)CC3)CC1)C2=O (stereo not drawn)
Outgoing: < 1 nM

Incoming: Provide one value: measured DC50 of CC(C)Oc1cc2c(cc1NC(=O)c1cnn3cccnc13)CN(C[C@@H](F)C1CCN(CC3CN(c4ccc5c(c4)CN(C4CCC(=O)NC4=O)C5=O)C3)CC1)C2=O (stereo partly drawn)
Outgoing: < 1 nM

Incoming: Provide one value: measured DC50 of CC(C)Oc1nc2c(cc1NC(=O)c1cnn3cccnc13)CN(C1CCN(CC3CN(c4ccc(C(=O)NC5CCC(=O)NC5=O)c(F)c4)C3)CC1)C2=O (stereo not drawn)
Outgoing: < 1 nM

Incoming: Provide one value: measured DC50 of O=C1CCC(N2C(=O)c3ccc(N4CC(CN5CCC([C@H](F)Cn6cc7cc(NC(=O)c8cnn9cccnc89)c(OCC8CC8)cc7n6)CC5)C4)cc3C2=O)C(=O)N1 (stereo partly drawn)
Outgoing: < 1 nM
